All values here come from patent US9238631B2.

System: NCI-H460 tumor
experiment description: In vivo biodistribution in NCI-H460 tumor bearing mice
condition context: 1 h p.i.
Label rule, in plain words: Pancreas (% ID/g at 1 h p.i.) of 0.7 % ID/g and up is Satisfied, under 0.7 % ID/g is Not satisfied.

molecule="N[C@@H](CC(Cc1ccc(OCC[18F])nc1)C(=O)O)C(=O)O (some centres unmarked) [[^18F]-56]" qualitative_label="Not satisfied"
molecule="N[C@@H](CCC(Cc1ccc(OCC[18F])cc1)C(=O)O)C(=O)O (some centres unmarked) [[^18F]-12]" qualitative_label=Satisfied
molecule="N[C@@H](C[C@H](CCCc1ccc(OCC[18F])cc1)C(=O)O)C(=O)O [[^18F]-25]" qualitative_label="Not satisfied"

Task item: Given the entry N[C@@H](CC(Cc1ccc(CCC[18F])cc1)C(=O)O)C(=O)O (some centres unmarked) [[^18F]-9] , answer whether its Pancreas (% ID/g at 1 h p.i.) meets or surpasses 0.7 % ID/g.
Reply: Not satisfied

Task item: Given the entry N[C@@H](CC(Cc1ccc(O[C@H]2C[C@@H]([18F])C2)cc1)C(=O)O)C(=O)O (some centres unmarked) [[^18F]-22] , answer whether its Pancreas (% ID/g at 1 h p.i.) meets or surpasses 0.7 % ID/g.
Reply: Not satisfied

Task item: Given the entry N[C@@H](C[C@H](Cc1ccc(OC[18F])cc1)C(=O)O)C(=O)O [[^18F]-48] , answer whether its Pancreas (% ID/g at 1 h p.i.) meets or surpasses 0.7 % ID/g.
Reply: Satisfied

Task item: Given the entry N[C@@H](CCC(Cc1ccc(OC[18F])cc1)C(=O)O)C(=O)O (single isomer, unassigned) [[^18F]-41 C5-1] , answer whether its Pancreas (% ID/g at 1 h p.i.) meets or surpasses 0.7 % ID/g.
Reply: Satisfied

----------
Test system: NCI-H460 tumor
experiment description: In vivo biodistribution in NCI-H460 tumor bearing mice
condition context: 1 h p.i.
Procedure: To test the pharmacokinetic properties of compounds from the present invention, all F18-labeled compounds were examined by biodistribution studies in NCI-H460 tumor bearing mice. […] All organs were removed and radioactivity was determined using a γ-counter. To compare the tumor uptake and retention of radioactivity of different ^18F-labeled derivatives from the present invention, biodistribution studies were performed in NCI-H460 tumor bearing NMRI (nu/nu) mice as described above. […]
endpoint: Kidney (% ID/g at 1 h p.i.)

Previously resolved entries follow.
molecule="N[C@@H](CC(Cc1ccc(OCC[18F])c(O)c1)C(=O)O)C(=O)O (some centres unmarked) [[^18F]-44]" meas_value="2.5 ± 0.7 % ID/g"
molecule="N[C@@H](CC(Cc1ccc(CCC[18F])cc1)C(=O)O)C(=O)O (some centres unmarked) [[^18F]-9]" meas_value="0.7 ± 0.04 % ID/g"
molecule="N[C@@H](CC(Cc1ccc(O[C@H]2C[C@@H]([18F])C2)cc1)C(=O)O)C(=O)O (some centres unmarked) [[^18F]-22]" meas_value="1.8 ± 0.6 % ID/g"
molecule="N[C@@H](CCC(Cc1ccc(OC[18F])cc1)C(=O)O)C(=O)O (single isomer, unassigned) [[^18F]-41 C5-2]" meas_value="2.4 ± 0.8 % ID/g"

// next item, Kidney (% ID/g at 1 h p.i.) requested
Just so you know, measured Kidney (% ID/g at 1 h p.i.) for N[C@@H](CCC(Cc1ccc(OC[18F])cc1)C(=O)O)C(=O)O (single isomer, unassigned) [[^18F]-41 C5-1] came out at 3.5 ± 0.7 % ID/g

----------
Tested on: NCI-H460 tumor
experiment description: In vivo biodistribution in NCI-H460 tumor bearing mice
condition context: 1 h p.i.
List of Tumor (% ID/g at 1 h p.i.) values.
Numeric only. Scale: % ID/g

compound="N[C@@H](CC(Cc1ccc(NCCC[18F])cc1)C(=O)O)C(=O)O (stereo partly drawn) [[^18F]-8]" endpoint="Tumor (% ID/g at 1 h p.i.)" display_unit="% ID/g" meas_value=4.6
compound="N[C@@H](CCC(Cc1ccc(OCC[18F])cc1)C(=O)O)C(=O)O (stereo partly drawn) [[^18F]-12]" endpoint="Tumor (% ID/g at 1 h p.i.)" display_unit="% ID/g" meas_value=6.47
compound="N[C@@H](CCC(Cc1ccc(OC[18F])cc1)C(=O)O)C(=O)O (single isomer, unassigned) [[^18F]-41 C5-1]" endpoint="Tumor (% ID/g at 1 h p.i.)" display_unit="% ID/g" meas_value=6.4
compound="N[C@@H](CCC(Cc1ccc(OCC[18F])cn1)C(=O)O)C(=O)O (stereo partly drawn) [[^18F]-32]" endpoint="Tumor (% ID/g at 1 h p.i.)" display_unit="% ID/g" meas_value=2.3
compound="N[C@@H](CCC(Cc1ccc(OC[18F])cc1)C(=O)O)C(=O)O (stereo partly drawn) [[^18F]-41]" endpoint="Tumor (% ID/g at 1 h p.i.)" display_unit="% ID/g" meas_value=6.8

Just so you know, measured Tumor (% ID/g at 1 h p.i.) for N[C@@H](C[C@H](CCCc1ccc(OCC[18F])cc1)C(=O)O)C(=O)O [[^18F]-25] came out at 0.5

Just so you know, measured Tumor (% ID/g at 1 h p.i.) for N[C@@H](CC(Cc1ccc(O[C@H]2C[C@@H]([18F])C2)cc1)C(=O)O)C(=O)O (stereo partly drawn) [[^18F]-22] came out at 1.3

Just so you know, measured Tumor (% ID/g at 1 h p.i.) for N[C@@H](CC(Cc1ccc(OCCC[18F])cc1)C(=O)O)C(=O)O (stereo partly drawn) [[^18F]-4] came out at 2.8

Just so you know, measured Tumor (% ID/g at 1 h p.i.) for N[C@@H](CC(Cc1ccc(CCC[18F])cc1)C(=O)O)C(=O)O (stereo partly drawn) [[^18F]-9] came out at 1.8

Just so you know, measured Tumor (% ID/g at 1 h p.i.) for N[C@@H](C[C@H](Cc1ccc(OC[18F])cc1)C(=O)O)C(=O)O [[^18F]-48] came out at 2.8

Just so you know, measured Tumor (% ID/g at 1 h p.i.) for N[C@@H](CCC(Cc1ccc(OC[18F])cc1)C(=O)O)C(=O)O (single isomer, unassigned) [[^18F]-41 C5-2] came out at 8.7

Just so you know, measured Tumor (% ID/g at 1 h p.i.) for N[C@@H](CC(Cc1ccc(OCC[18F])nc1)C(=O)O)C(=O)O (stereo partly drawn) [[^18F]-56] came out at 1.0

Just so you know, measured Tumor (% ID/g at 1 h p.i.) for N[C@H](CCC(Cc1ccc(OCC[18F])cc1)C(=O)O)C(=O)O (stereo partly drawn) [[^18F]-16] came out at 3.6

Just so you know, measured Tumor (% ID/g at 1 h p.i.) for N[C@@H](CCC(Cc1ccc(NCC[18F])cc1)C(=O)O)C(=O)O (stereo partly drawn) [[^18F]-52] came out at 8.2

Just so you know, measured Tumor (% ID/g at 1 h p.i.) for N[C@@H](CC(Cc1ccc(OCC[18F])c(O)c1)C(=O)O)C(=O)O (stereo partly drawn) [[^18F]-44] came out at 3.3

----------
System: NCI-H460 tumor
experiment description: In vivo biodistribution in NCI-H460 tumor bearing mice
condition context: 1 h p.i.
endpoint: Liver (% ID/g at 1 h p.i.) (% ID/g)
Numeric only. Scale: % ID/g

Previously resolved entries follow.
molecule="N[C@@H](CCC(Cc1ccc(OCC[18F])cn1)C(=O)O)C(=O)O (stereo partly shown) [[^18F]-32]" experimental_target="NCI-H460 tumor" endpoint="Liver (% ID/g at 1 h p.i.)" meas_value=2.3
molecule="N[C@@H](CCC(Cc1ccc(OC[18F])cc1)C(=O)O)C(=O)O (single isomer, unassigned) [[^18F]-41 C5-1]" experimental_target="NCI-H460 tumor" endpoint="Liver (% ID/g at 1 h p.i.)" meas_value=0.3
molecule="N[C@@H](CC(Cc1ccc(OCCC[18F])cc1)C(=O)O)C(=O)O (stereo partly shown) [[^18F]-4]" experimental_target="NCI-H460 tumor" endpoint="Liver (% ID/g at 1 h p.i.)" meas_value=1.5

// next item, Liver (% ID/g at 1 h p.i.) requested
Just so you know, measured Liver (% ID/g at 1 h p.i.) for N[C@@H](C[C@H](Cc1ccc(OC[18F])cc1)C(=O)O)C(=O)O [[^18F]-48] came out at 0.2

----------
System: NCI-H460 tumor
experiment description: PET imaging in NCI-H460 tumor bearing nude-rats
Assay type: in vivo
condition context: PET ROI analysis, 1 h p.i.
Response field label takes MET when Tumor (Max % ID/g at 1 h p.i.) is strictly below 2 % ID/g and NOT MET in all other cases.

compound="N[C@@H](CCC(Cc1ccc(OCC[18F])cc1)C(=O)O)C(=O)O (some centres unmarked) [[^18F]-12 C5-2]" qualitative_label="NOT MET"

Task item: Report whether reported Tumor (Max % ID/g at 1 h p.i.) is lower than 2 % ID/g (strictly) for N[C@@H](CC(Cc1ccc(OC[C@H](O)[C@@H](O)C[18F])cc1)C(=O)O)C(=O)O (some centres unmarked) [[^18F]-58]
Reply: MET

Task item: Report whether reported Tumor (Max % ID/g at 1 h p.i.) is lower than 2 % ID/g (strictly) for N[C@@H](CCC(Cc1ccc(OCC[18F])cc1)C(=O)O)C(=O)O (some centres unmarked) [[^18F]-12 C5-1]
Reply: NOT MET

Task item: Report whether reported Tumor (Max % ID/g at 1 h p.i.) is lower than 2 % ID/g (strictly) for N[C@@H](C[C@@H](Cc1ccc(OC[18F])cc1)C(=O)O)C(=O)O [[^18F]-50]
Reply: NOT MET

Task item: Report whether reported Tumor (Max % ID/g at 1 h p.i.) is lower than 2 % ID/g (strictly) for N[C@H](CCC(Cc1ccc(OCC[18F])cc1)C(=O)O)C(=O)O (some centres unmarked) [[^18F]-16]
Reply: NOT MET

Task item: Report whether reported Tumor (Max % ID/g at 1 h p.i.) is lower than 2 % ID/g (strictly) for N[C@@H](C[C@H](Cc1ccc(OC[18F])cc1)C(=O)O)C(=O)O [[^18F]-48]
Reply: MET

Task item: Report whether reported Tumor (Max % ID/g at 1 h p.i.) is lower than 2 % ID/g (strictly) for N[C@@H](CCC(Cc1ccc(OC[18F])cc1)C(=O)O)C(=O)O (some centres unmarked) [[^18F]-41]
Reply: NOT MET

Task item: Report whether reported Tumor (Max % ID/g at 1 h p.i.) is lower than 2 % ID/g (strictly) for N[C@@H](CCC(Cc1ccc(OC[18F])cc1)C(=O)O)C(=O)O (single isomer, unassigned) [[^18F]-41 C5-1]
Reply: NOT MET

Task item: Report whether reported Tumor (Max % ID/g at 1 h p.i.) is lower than 2 % ID/g (strictly) for N[C@@H](CC(Cc1ccc(OCC[18F])cn1)C(=O)O)C(=O)O (some centres unmarked) [[^18F]-17]
Reply: NOT MET

Task item: Report whether reported Tumor (Max % ID/g at 1 h p.i.) is lower than 2 % ID/g (strictly) for N[C@@H](CC(Cc1ccc(OCC[18F])c[n+]1[O-])C(=O)O)C(=O)O (some centres unmarked) [[^18F]-35]
Reply: MET

Task item: Report whether reported Tumor (Max % ID/g at 1 h p.i.) is lower than 2 % ID/g (strictly) for N[C@@H](CC(Cc1ccc(C[18F])cc1)C(=O)O)C(=O)O (some centres unmarked) [[^18F]-66]
Reply: MET
